Target: DNMT1 full-length (Homo sapiens, UniProt P26358 SEQ:1-1616)
Sequence (P26358 whole entry): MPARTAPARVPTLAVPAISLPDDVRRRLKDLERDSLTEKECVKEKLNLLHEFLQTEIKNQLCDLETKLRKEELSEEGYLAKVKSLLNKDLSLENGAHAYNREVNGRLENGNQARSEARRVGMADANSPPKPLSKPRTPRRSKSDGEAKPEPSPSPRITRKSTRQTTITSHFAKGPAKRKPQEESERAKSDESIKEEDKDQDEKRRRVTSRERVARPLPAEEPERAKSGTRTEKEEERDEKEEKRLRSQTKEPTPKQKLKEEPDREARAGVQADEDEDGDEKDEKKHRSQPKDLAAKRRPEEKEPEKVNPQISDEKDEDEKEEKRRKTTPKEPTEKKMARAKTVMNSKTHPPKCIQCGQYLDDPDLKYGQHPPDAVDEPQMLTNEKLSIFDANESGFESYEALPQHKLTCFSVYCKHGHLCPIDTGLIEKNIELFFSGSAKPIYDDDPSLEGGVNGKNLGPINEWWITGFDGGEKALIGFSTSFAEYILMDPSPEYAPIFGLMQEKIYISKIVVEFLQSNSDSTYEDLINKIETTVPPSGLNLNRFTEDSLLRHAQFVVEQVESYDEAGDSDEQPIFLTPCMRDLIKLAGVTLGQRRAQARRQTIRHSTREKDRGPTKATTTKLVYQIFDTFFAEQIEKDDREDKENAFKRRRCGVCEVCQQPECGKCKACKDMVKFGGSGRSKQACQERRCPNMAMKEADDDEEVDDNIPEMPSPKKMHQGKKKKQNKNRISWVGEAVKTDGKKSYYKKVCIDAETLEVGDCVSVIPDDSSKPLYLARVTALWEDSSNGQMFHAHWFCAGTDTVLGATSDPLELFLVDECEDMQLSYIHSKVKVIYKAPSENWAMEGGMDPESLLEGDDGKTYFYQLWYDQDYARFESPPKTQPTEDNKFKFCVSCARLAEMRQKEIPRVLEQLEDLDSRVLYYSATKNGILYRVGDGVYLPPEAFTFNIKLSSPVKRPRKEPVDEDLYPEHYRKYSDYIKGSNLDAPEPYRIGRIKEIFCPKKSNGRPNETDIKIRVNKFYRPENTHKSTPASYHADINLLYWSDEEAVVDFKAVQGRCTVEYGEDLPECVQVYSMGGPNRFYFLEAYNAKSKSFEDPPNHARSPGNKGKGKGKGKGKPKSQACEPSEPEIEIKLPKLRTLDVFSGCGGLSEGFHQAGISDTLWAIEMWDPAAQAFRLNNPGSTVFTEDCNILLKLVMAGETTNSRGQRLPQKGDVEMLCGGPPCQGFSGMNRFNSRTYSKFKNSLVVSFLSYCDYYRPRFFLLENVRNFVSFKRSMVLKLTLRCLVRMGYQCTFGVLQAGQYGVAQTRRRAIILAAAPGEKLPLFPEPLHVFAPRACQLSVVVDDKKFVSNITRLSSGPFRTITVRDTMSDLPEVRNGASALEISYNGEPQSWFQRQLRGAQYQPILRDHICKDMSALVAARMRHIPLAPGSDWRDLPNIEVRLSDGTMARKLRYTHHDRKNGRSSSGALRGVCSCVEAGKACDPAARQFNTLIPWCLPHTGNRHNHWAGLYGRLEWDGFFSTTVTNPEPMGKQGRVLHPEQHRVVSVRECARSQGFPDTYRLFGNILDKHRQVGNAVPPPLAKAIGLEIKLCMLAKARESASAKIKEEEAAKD
Assay: inhibition; competitive vs hemimethylated DNA
Conditions: tags: baculovirus Sf9
Reported pKi values are given for each entry in this list.
Keep in mind that pKi stands for -log10 of concentration in molar terms.

CAAAGUGCUUACAGUGCAGGUAG (ssRNA) [miR-17-5p]    6.50

What does the record list as pKi for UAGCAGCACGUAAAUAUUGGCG (ssRNA) [miR-16-5p] ?
6.33

What does the record list as pKi for UGUGCAAAUCCAUGCAAAACUGA (ssRNA) [miR-19b-3p] ?
5.48
